Attribution: patent US9394284B2

- Test target: human prostanoid DP1 receptor (Homo sapiens, UniProt Q13258)
- Construct: expressed in transfected cells
- Sequence (Q13258 whole entry): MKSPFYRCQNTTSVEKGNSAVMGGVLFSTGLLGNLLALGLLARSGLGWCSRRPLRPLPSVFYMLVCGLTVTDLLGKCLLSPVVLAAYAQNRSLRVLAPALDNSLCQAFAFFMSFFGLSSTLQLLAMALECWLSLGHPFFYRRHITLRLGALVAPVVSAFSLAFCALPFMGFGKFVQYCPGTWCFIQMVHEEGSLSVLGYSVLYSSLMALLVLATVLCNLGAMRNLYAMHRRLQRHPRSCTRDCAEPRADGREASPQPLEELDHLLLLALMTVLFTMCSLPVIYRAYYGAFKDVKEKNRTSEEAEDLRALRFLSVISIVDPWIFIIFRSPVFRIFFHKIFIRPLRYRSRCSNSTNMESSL
- Measurement notes: FLIPR Ca2+ signaling antagonist assay, DP1 receptor stable cell line
- Format: cell-based
- Test parameters: HEK-293 EBNA stable cell line; standard agonist BW 245C; NA = inactive (no antagonism or Kb 10,000 nM); PAg, Ag not defined
Readout type: Kb (nM)
One number for each entry, in nM.

CCCCC(CC)COc1ccc(Br)cc1Cn1nc(CCC(=O)O)cc1C (stereo not drawn) [Example 6]    180

Batch lookup, Kb per entry.
1. C/C=C(\C)COc1ccc(Br)cc1Cn1nc(CCC(=O)O)cc1C [Example 9]
2. CCC(CC)COc1ccc(C(C)(C)C)cc1Cn1nc(CCC(=O)O)cc1C [Example 49]
3. CCCC(C)COc1ccc(Br)cc1Cn1nc(CCC(=O)O)cc1C (stereo not drawn) [Example 8]
4. Cc1cc(CCC(=O)O)nn1Cc1cc(Cl)ccc1OCC1(C(F)(F)F)CCC1 [Example 38]
5. CCC(CC)COc1ccc(C(F)(F)F)cc1Cn1nc(CCC(=O)O)cc1C [Example 46]
6. CCC(CC)COc1ccc(Br)cc1Cn1nc(CCC(=O)O)cc1C(C)(C)C [Example 57]

[750, 270, 110, 1900, 700, 1600]

Hello, I would appreciate it if you could give Kb for each entry below.
1. CCC(CC)COc1ccc(Br)cc1Cn1nc(CC(C)C(=O)O)cc1C (stereo not drawn) [Example 67]
2. CCC(CC)COc1ccc(Br)cc1Cn1ccc(CCC(=O)O)n1 [Example 59]
3. CCC(C)CCOc1ccc(Cl)cc1Cn1nc(CCC(=O)O)cc1C (stereo not drawn) [Example 22]
4. Cc1cc(CCC(=O)NS(=O)(=O)c2ccccc2)nn1Cc1cc(Cl)ccc1OCc1ccc(Cl)cc1 [Example 24]
5. Cc1cc(CCC(=O)O)nn1Cc1cc(Br)ccc1OCC1(C(F)(F)F)CCC1 [Example 13]
6. CCC(CC)COc1ccc(Br)cc1Cn1nc(CCC(=O)NS(=O)(=O)C(F)(F)F)cc1C [Example 17]
7. Cc1cc(CCC(=O)O)nn1Cc1cc(OC(F)(F)F)ccc1OCc1ccc(Cl)cc1 [Example 51]
8. Cc1cc(CCC(=O)NS(=O)(=O)C(F)(F)F)nn1Cc1cc(Cl)ccc1CCC1CCCC1 [Example 75]

1: 400; 2: 300; 3: 340; 4: 800; 5: 900; 6: 200; 7: 600; 8: 350

Batch request: Kb per item, same order as input.
1. Cc1cc(CCC(=O)O)nn1Cc1cc(Br)ccc1OCC1CCC1 [Example 12]
2. CCC(C)CCOc1ccc(Br)cc1Cn1nc(CCC(=O)O)cc1C (stereo not drawn) [Example 7]
3. CCCc1cc(CCC(=O)O)nn1Cc1cc(Br)ccc1OCC(CC)CC [Example 56]

1: 110; 2: 490; 3: 800

====

- Test target: human prostanoid FP receptor (Homo sapiens, UniProt P43088)
- Construct: expressed in transfected cells
- Sequence (P43088 whole entry): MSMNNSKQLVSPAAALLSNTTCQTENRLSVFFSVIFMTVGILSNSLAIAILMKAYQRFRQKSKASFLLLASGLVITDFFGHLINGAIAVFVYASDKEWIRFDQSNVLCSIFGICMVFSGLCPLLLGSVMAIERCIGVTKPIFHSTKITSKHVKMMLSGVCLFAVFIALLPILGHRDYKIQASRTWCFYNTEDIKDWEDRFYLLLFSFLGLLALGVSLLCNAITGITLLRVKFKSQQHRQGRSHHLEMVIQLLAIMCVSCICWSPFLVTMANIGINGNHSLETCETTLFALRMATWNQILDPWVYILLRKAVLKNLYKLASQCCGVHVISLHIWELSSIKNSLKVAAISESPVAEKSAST
- Measurement notes: FLIPR Ca2+ signaling antagonist assay, FP receptor stable cell line
- Type: cell-based
- Test parameters: HEK-293 EBNA stable cell line; standard agonist 17-phenyl-PGF2α; NA = inactive (no antagonism or Kb 10,000 nM); PAg, Ag not defined
Readout type: Kb
Please answer using a numeric value trailed by its unit.

Known Kb results, listed for orientation:
CCc1ccc(OCC(CC)CC)c(Cn2nc(CCC(=O)O)cc2C)c1    500 nM
Cc1cc(CCC(=O)O)nn1Cc1cc(Cl)ccc1C#CC1CCCC1    50 nM
CCC(CC)COc1ccc(Br)cc1Cn1nc(CCC(=O)O)cc1C(C)C    110 nM
Cc1cc(CCC(=O)O)nn1Cc1cc(Cl)ccc1OCCCC(C)C    360 nM

Please go through the list and note Kb for each compound.
1. C#Cc1ccc(OCC(CC)CC)c(Cn2nc(CCC(=O)O)cc2C)c1
2. Cc1cc(CCC(=O)O)nn1Cc1cc(Br)ccc1OCC1(C(F)(F)F)CCCC1
3. Cc1cc(CCC(=O)O)nn1Cc1cc(Cl)ccc1OCC(C)C
4. CCC(CC)COc1ccc(Br)cc1Cn1ccc(CCC(=O)O)n1
5. Cc1cc(CCC(=O)O)nn1Cc1cc(Cl)ccc1OCc1ccc(Cl)cc1Cl

1. 50 nM
2. 1000 nM
3. 180 nM
4. 1200 nM
5. 140 nM
